# target_system: T1, human soluble urokinase plasminogen activator receptor (suPAR) (human, UniProt Q03405 23-303, limits assumed)
# T1 construct: Column head says only 'human'; also called human suPAR; hsuPAR
# T1 sequence (Q03405 23-303 limits assumed): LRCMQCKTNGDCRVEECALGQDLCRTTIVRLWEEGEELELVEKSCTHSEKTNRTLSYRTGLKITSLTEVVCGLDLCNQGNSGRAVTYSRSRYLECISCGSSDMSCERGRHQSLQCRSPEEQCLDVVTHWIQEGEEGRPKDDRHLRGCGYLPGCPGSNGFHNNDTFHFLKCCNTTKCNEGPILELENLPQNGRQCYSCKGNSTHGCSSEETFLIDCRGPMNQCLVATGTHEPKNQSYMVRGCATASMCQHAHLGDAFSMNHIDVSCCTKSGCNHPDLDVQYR
# assay_info: BLI (Octet) off-rate screen of scFv clones
Recorded koff values for a group of binders are listed next.

[
  {
    "binder": "suPAR_DB02_E04 (scFv, V domains shown, scFv clone from phage display) VH: QVQLVQSGAEVKKPGASVKVSCKASGYTFTNYYIQWVRQAPGQGLEWMGWIDHENGNTIYDQKFQGRVTMTRDTSTSTVYMELSSLRSEDTAVYYCARGYDVDWFVYWGQGTLVTVSS VL: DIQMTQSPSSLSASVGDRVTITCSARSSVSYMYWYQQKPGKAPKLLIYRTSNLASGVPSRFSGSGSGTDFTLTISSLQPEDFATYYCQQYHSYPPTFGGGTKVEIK",
    "koff": "0.00311 s⁻¹"
  },
  {
    "binder": "suPAR_DB02_F09 (scFv, V domains shown, scFv clone from phage display) VH: QVQLVQSGAEVKKPGASVKVSCKASGYTFTGYYMHWVRQAPGQGLEWMGWIDPEGGSTIYDQKFQGRVTMTRDTSTSTVYMELSSLRSEDTAVYYCAGGYDVDWFVYWGQGTLVTVSS VL: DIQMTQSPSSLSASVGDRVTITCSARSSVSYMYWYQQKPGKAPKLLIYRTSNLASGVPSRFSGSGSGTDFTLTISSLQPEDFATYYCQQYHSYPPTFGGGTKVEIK",
    "koff": "0.00166 s⁻¹"
  },
  {
    "binder": "suPAR_DB02_F07 (scFv, V domains shown, scFv clone from phage display) VH: QVQLVQSGAEVKKPGASVKVSCKASGYTFTGYYVHWVRQAPGQGLEWMGWIDPEGGNTIYDQKFQGRVTMTRDTSTSTVYMELSSLRSEDTAVYYCARGYDVDWFVYWGQGTLVTVSS VL: DIQMTQSPSSLSASVGDRVTITCRARQSVSYMYWYQQKPGKAPKLLIYRTSNLQSGVPSRFSGSGSGTDFTLTISSLQPEDFATYYCQQYHSYPPTFGGGTKVEIK",
    "koff": "0.002 s⁻¹"
  }
]

Reference source for all entries: patent US20250215104A1
